- TARGET OR SYSTEM: β2-adrenoceptors (Rattus norvegicus)
- Construct: this activity is measured in rats by determining the dosage; from tissue; host or cells: living rat, i.v. dosing; read-out blood pressure (isoprenaline-induced depressor response)
- Sequence (P10608 whole entry): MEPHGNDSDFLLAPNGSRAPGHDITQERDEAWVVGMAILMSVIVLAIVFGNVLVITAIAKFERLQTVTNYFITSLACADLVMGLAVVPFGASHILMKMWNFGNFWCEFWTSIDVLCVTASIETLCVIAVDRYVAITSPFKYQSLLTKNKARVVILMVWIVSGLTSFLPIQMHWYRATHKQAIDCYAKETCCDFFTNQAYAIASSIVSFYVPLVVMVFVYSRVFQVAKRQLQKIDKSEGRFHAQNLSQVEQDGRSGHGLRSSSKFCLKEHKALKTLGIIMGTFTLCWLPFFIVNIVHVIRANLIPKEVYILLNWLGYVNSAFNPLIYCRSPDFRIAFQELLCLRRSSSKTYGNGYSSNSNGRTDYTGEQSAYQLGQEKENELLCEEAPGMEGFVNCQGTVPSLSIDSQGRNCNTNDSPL
- TEST DETAILS: 50% reduction in isoprenaline-induced depressor responses (β2-blocking activity) in rats, i.v.
- Type: in vivo
- CONDITION NOTES: iv, dosage for 50% reduction in isoprenaline-induced depressor responses
This section presents compounds with their documented ED50 values.
Express the result in mg/kg but write the number alone.

COMPOUND	TARGET OR SYSTEM	READOUT KIND	UNIT ABBREV	RESULT NUMBER
CC(C)NCC(O)COc1ccc(OCCn2cccn2)cc1 (stereo not shown)	β2-adrenoceptors (Rattus norvegicus)	ED50	mg/kg	6.5

Continue with the next compound.
Lab note: need ED50 for CC(C)NCC(O)COc1ccc(OCn2cc(Cl)cn2)cc1 (stereo not shown) on β2-adrenoceptors (Rattus norvegicus), anyone have it? 2.43

---

- TARGET OR SYSTEM: β1-adrenoceptors (Rattus norvegicus)
- Construct: this activity is measured in rats by determining the dosage; from tissue; host or cells: living rat, i.v. dosing; read-out heart rate (isoprenaline-induced tachycardia)
- Sequence (P18090 whole entry): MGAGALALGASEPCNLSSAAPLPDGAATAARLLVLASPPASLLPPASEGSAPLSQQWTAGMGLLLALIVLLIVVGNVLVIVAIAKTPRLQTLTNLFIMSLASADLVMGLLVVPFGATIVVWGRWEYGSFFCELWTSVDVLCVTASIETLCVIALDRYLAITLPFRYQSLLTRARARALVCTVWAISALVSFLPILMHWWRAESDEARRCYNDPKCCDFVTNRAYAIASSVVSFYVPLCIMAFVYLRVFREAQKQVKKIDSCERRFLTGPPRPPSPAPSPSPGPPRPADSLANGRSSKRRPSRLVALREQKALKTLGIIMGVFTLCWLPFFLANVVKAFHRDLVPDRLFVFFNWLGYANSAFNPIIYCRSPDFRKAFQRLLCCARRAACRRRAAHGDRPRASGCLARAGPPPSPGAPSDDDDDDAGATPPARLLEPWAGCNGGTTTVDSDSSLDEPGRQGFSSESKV
- TEST DETAILS: 50% reduction in isoprenaline-induced tachycardia (β1-blocking activity) in rats, i.v.
- Assay type: in vivo
- CONDITION NOTES: iv, rats, i.v., dosage for 50% reduction in isoprenaline-induced tachycardia, read-out: ED50 (HR)
The entries below come with measured ED50 values attached.
Write the number in mg/kg without appending the unit.

Before answering, review these 3 worked examples.
COMPOUND	UNIT ABBREV	RESULT NUMBER
CC(C)NCC(O)COc1ccc(OCCn2nccn2)cc1 (stereo not shown)	mg/kg	0.014
CC(C)NCC(O)COc1ccc(OCn2cc(Cl)cn2)cc1 (stereo not shown)	mg/kg	0.004
CC(C)NCC(O)COc1ccc(OCn2nccn2)cc1 (stereo not shown)	mg/kg	0.011

Report ED50 for CC(C)NCC(O)COc1ccc(OCCn2cccn2)cc1 (stereo not shown) please. 0.05
